Experiment: recombinant barcode read abundance after kanamycin selection (control-corrected) (log10(CPM+1)); higher = more efficient recombination; sequences stand for … in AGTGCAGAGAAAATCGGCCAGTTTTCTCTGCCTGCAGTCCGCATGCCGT…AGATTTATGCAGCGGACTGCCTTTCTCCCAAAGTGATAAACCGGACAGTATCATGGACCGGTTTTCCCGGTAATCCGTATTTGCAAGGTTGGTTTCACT; site = the 11-nt target;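 also: IS621 recombinase and bridge RNA in Escherichia coli cells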
// map recombinant barcode read abundance (log10) to label using one: < 0.09; two: ≥ 0.09 and < 0.2; three: ≥ 0.2

CAAACTCCTTGGGTTCTAACCTGTTGCTT (site CAAACTCCTAA)	two
CAAACTCCTTGGGTTCTAACCTGTTGCTT (site CAAACTCCTAT)	one
TGTCAATCTTGGGTTCTAACCTGTTGCCT (site TGTCAATCTAG)	two

Returns: class label. Input: TGAGAACCTTGGGTTCTAACCTGTTGCCT (site AGAGAACCTAG)
three

Now consider TCCGAAACTTGGGTTCTAACCTGTTGCAT (site TCTGAAACTAG) .
one

Now consider TTAAATCCTTGGGTTCTAACCTGTTGCCT (site TTAAATCCTAG) .
three

Now consider GCACACTCTTGGGTTCTAACCTGTTGCCT (site GCACACTCTAG) .
three

Now consider CAGATTCCTTGGGTTCTAACCTGTTGCCT (site GAGATTCCTAG) .
three

Now consider TAACCATCTTGGGTTCTAACCTGTTGCCT (site TAGCCATCTAG) .
one

Now consider GAACACACTTGGGTTCTAACCTGTTGCCG (site GAACACACTCG) .
three
